system: 935938-334-R-J1-PDC complex spheroid viability; test: Anticancer human tumor 935938-334-R-J1-PDC patient-derived small intestine adenocarcinoma cell line growth inhibition [POLQ]; settings: second compound 0.316 µM; first compound 0.316 µM; active compounds read low;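 also: spheroids exposed to drugs for seven days before viability read; 100% = DMSO vehicle control wells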
experimental_readout: viability, T/C (%)
Your answer is read as %, so omit the unit and give the number.

Sample records with viability, T/C:
>>> measured_result("COc1cccc(OCCCN)c1-c1cc(Nc2cnc(C#N)cn2)n[nH]1 + COC1C(OC(N)=O)C(O)C(Oc2ccc3c(O)c(NC(=O)c4ccc(O)c(CC=C(C)C)c4)c(=O)oc3c2C)OC1(C)C")
10.6
>>> measured_result("C=CC(=O)N1CCN(c2nc(=O)n(-c3c(C)ccnc3C(C)C)c3nc(-c4c(O)cccc4F)c(F)cc23)C(C)C1 (stereo unspecified) + Nc1ccc(C#CCN(C(=O)Cc2ncc(C(F)(F)F)cc2C(F)(F)F)c2ccc(F)cc2)nn1")
87.3
>>> measured_result("CC1COCCN1c1cc(C2(O)CC3CCC(C2)O3)c2cnn(-c3ccn[nH]3)c2n1 (stereo unspecified) + Cc1cccc(N(C)C(=O)C2C(O)CCN2c2nc(C)cc(C(F)(F)F)c2C#N)c1")
51.3
>>> measured_result("CCc1c2c(nc3ccc(O)cc13)-c1cc3c(c(=O)n1C2)COC(=O)[C@]3(O)CC + COC1C(OC(N)=O)C(O)C(Oc2ccc3c(O)c(NC(=O)c4ccc(O)c(CC=C(C)C)c4)c(=O)oc3c2C)OC1(C)C")
29
>>> measured_result("CCc1c2c(nc3ccc(O)cc13)-c1cc3c(c(=O)n1C2)COC(=O)[C@]3(O)CC + Nc1ccc(C#CCN(C(=O)Cc2ncc(C(F)(F)F)cc2C(F)(F)F)c2ccc(F)cc2)nn1")
30.6

Shift focus to the following entry.
viability, T/C for CCCS(=O)(=O)Nc1ccc(F)c(C(=O)c2c[nH]c3ncc(-c4ccc(Cl)cc4)cc23)c1F + COC1C(OC(N)=O)C(O)C(Oc2ccc3c(O)c(NC(=O)c4ccc(O)c(CC=C(C)C)c4)c(=O)oc3c2C)OC1(C)C ? 119
